Each record here notes measured pEC50.
# Tested on: JAK1-dependent STAT6 phosphorylation downstream of IL-13 stimulation in TF-1 human erythroleukemia cells
# protocol_description: JAK1 pathway assay in TF-1 cells (IL-13-pSTAT6, MSD)
# Type: cell-based
# conditions: Homo sapiens, TF-1, TF-1 cells, read-out: IL13-pSTAT6 EC50_TF-1
# Description: JAK1 Pathway Assay in Cell Lines was Carried Out as Follows: Inhibitor potency (EC50) was determined in cell-based assays designed to measure JAK1 dependent STAT phosphorylation. […] Test compounds were serially diluted 1:2 in DMSO and then diluted 1:50 in medium just before use. […] Then, cells were stimulated with human recombinant cytokine at their respective EC90 concentrations, as previously determined for each individual lot. […]
pEC50: −log10 of the molar value.

structure	pEC50
O=C(Nc1cn(CC(=O)N2C[C@H]3CN(CC4CCCCC4)C[C@H]3C2)nc1-c1cc(Cl)ccc1OC(F)F)c1cnn2cccnc12	8.27
C=CCN(CCOc1ccc(C)cc1)C1CCN(C(=O)Cn2cc(NC(=O)c3cnn4cccnc34)c(-c3cc(Cl)ccc3OC(F)F)n2)CC1	7.37
CN1CC[C@@H]2[C@@H](CCN2C(=O)Cn2cc(NC(=O)c3cnn4cccnc34)c(-c3cc(Cl)ccc3OC(F)F)n2)C1	8.31
CC(C)CN1C[C@@H]2CN(C(=O)Cn3cc(NC(=O)c4cnn5cccnc45)c(-c4cc(Cl)ccc4OC(F)F)n3)C[C@@H]2C1	8.46
COCCN1CCN(C(=O)Cn2cc(NC(=O)c3cnn4cccnc34)c(-c3cc(Cl)ccc3OC(F)F)n2)CC1	8.48
CN(CCOc1ccc(Br)cc1)C1CCN(C(=O)Cn2cc(NC(=O)c3cnn4cccnc34)c(-c3cc(Cl)ccc3OC(F)F)n2)CC1	7.69

---

Each record here notes measured Ki.
# target_or_system: isolated recombinant JAK1 kinase domain (Homo sapiens (Human), UniProt P23458)
# Sequence (P23458 875-1153): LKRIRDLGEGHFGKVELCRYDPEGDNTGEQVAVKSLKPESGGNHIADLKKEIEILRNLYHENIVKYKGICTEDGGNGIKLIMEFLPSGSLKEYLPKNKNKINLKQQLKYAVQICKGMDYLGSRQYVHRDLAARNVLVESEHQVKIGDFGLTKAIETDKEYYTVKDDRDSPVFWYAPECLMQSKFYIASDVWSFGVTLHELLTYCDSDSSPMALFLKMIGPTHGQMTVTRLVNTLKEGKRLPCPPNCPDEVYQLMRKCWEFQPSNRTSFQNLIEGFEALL
# protocol_description: JAK1 enzyme assay (Caliper LabChip, peptide phosphorylation)
# Assay type: biochemical
# conditions: isolated recombinant JAK1 kinase domain, 25 μM ATP

compound	Ki / nM
CS(=O)(=O)CCCN1CCC(n2cc(NC(=O)c3c(N)nn4cccnc34)c(-c3cc(Cl)ccc3OC(F)F)n2)CC1	0.45
CN[C@@H]1CCC[C@H](n2cc(NC(=O)c3c(N)nn4cccnc34)c(-c3cc(Cl)ccc3OC(F)F)n2)C1	0.26
O=C(Nc1sc(CN2CCCCC2)nc1-c1cc(Cl)ccc1OC(F)F)c1cnn2cccnc12	1.5
O=C1CCC(Cn2cc(NC(=O)c3cnn4cccnc34)c(-c3cc(Cl)ccc3OC(F)F)n2)O1 (stereo not shown)	0.68
Nc1nn2cccnc2c1C(=O)Nc1cn(C2CCN(CCCC(=O)NCc3ccccc3)CC2)nc1-c1cc(Cl)ccc1OC(F)F	0.53
CC(=O)N1CCC(CN2C[C@@H]3CN(C(=O)Cn4cc(NC(=O)c5cnn6cccnc56)c(-c5cc(Cl)ccc5OC(F)F)n4)C[C@@H]3C2)CC1	0.94
CN(CCOc1ccccc1)C1CCN(C(=O)Cn2cc(NC(=O)c3cnn4cccnc34)c(-c3cc(Cl)ccc3OC(F)F)n2)CC1	0.84

---

# target_or_system: isolated recombinant JAK1 kinase domain (Homo sapiens (Human), UniProt P23458)
# protocol_description: JAK1 enzyme assay (Caliper LabChip, peptide phosphorylation)
# Assay type: biochemical
# conditions: isolated recombinant JAK1 kinase domain, 25 μM ATP
pKi: −log10 of the molar value. Where a name gives a salt, the structure may show the parent alone.
Each record here notes measured pKi.
measurement_kind: pKi

molecule	measurement_kind	value
O=C(Nc1cn(Cc2cn(C3CCN(C4CCOC4)CC3)nn2)nc1-c1cc(Cl)ccc1OC(F)F)c1cnn2cccnc12 (centres unmarked) [Example 455]	pKi	9.52
CN1C[C@H]2CN(C(=O)Cn3cc(NC(=O)c4cnn5cccnc45)c(-c4cc(Cl)ccc4OC(F)F)n3)C[C@@]2(c2ccccc2)C1 [Example 43]	pKi	9.18
Nc1nn2cccnc2c1C(=O)Nc1cn(C2CCN(CCCNC(=O)c3ccccc3)CC2)nc1-c1cc(Cl)ccc1OC(F)F [Example 145]	pKi	9.24
O=C(Nc1cn(CC(O)CN2CCCCC2)nc1-c1cc(Cl)ccc1OC(F)F)c1cnn2cccnc12 (centres unmarked) [Example 405]	pKi	8.76
CN(C)C(=O)CN(C)C1CCN(C(=O)Cn2cc(NC(=O)c3cnn4cccnc34)c(-c3cc(Cl)ccc3OC(F)F)n2)CC1 [Example 400]	pKi	9.24
O=C(Nc1cn(CC(=O)N2C[C@H]3CN(CCOCc4ccc(Cl)cc4)C[C@H]3C2)nc1-c1cc(Cl)ccc1OC(F)F)c1cnn2cccnc12 [Example 60]	pKi	8.96
CCOC(=O)CN(CCn1cc(NC(=O)c2cnn3cccnc23)c(-c2cc(Cl)ccc2OC(F)F)n1)Cc1cccnc1 [Example 362]	pKi	8.30
O=C(Nc1cn(CC(=O)N2CCC(NCCc3ccc(O)cc3)CC2)nc1-c1cc(Cl)ccc1OC(F)F)c1cnn2cccnc12 [Example 91]	pKi	9.12
CN(CCc1ccccc1)C1CCN(c2nc(-c3cc(Cl)ccc3OC(F)F)c(NC(=O)c3cnn4cccnc34)s2)CC1 [Example 192]	pKi	8.30
O=C(Nc1cn(CC(=O)N2C[C@H]3CN(CC(F)(F)F)C[C@H]3C2)nc1-c1cc(Cl)ccc1OC(F)F)c1cnn2cccnc12 [Example 59]	pKi	9.30
CC(C)N1CCN(C(=O)Cn2cc(NC(=O)c3cnn4cccnc34)c(-c3cc(Cl)ccc3OC(F)F)n2)CC1 [Example 373]	pKi	9.15
CN1CC[C@H]2[C@H](CCN2C(=O)Cn2cc(NC(=O)c3cnn4cccnc34)c(-c3cc(Cl)ccc3OC(F)F)n2)C1 [Example 48]	pKi	9.03
CCNC1CCN(C(=O)Cn2cc(NC(=O)c3c(N)nn4cccnc34)c(-c3cc(Cl)ccc3OC(F)F)n2)CC1 [Example 75]	pKi	9.18
CCCCOc1ccc(CN(C)C2CCN(C(=O)Cn3cc(NC(=O)c4cnn5cccnc45)c(-c4cc(Cl)ccc4OC(F)F)n3)CC2)cc1 [Example 127]	pKi	9.11
CN(C)C[C@@H]1CCCN(C(=O)Cn2cc(NC(=O)c3cnn4cccnc34)c(-c3cc(Cl)ccc3OC(F)F)n2)C1 [Example 72]	pKi	8.93
CN1CCN(C2CCN(C(=O)Cn3cc(NC(=O)c4cnn5cccnc45)c(-c4cc(Cl)ccc4OC(F)F)n3)CC2)CC1 [Example 349]	pKi	9.26
CSCCNCCn1cc(NC(=O)c2cnn3cccnc23)c(-c2cc(Cl)ccc2OC(F)F)n1 [Example 312]	pKi	9.40
CC1(CN2CCN(C(=O)Cn3cc(NC(=O)c4cnn5cccnc45)c(-c4cc(Cl)ccc4OC(F)F)n3)CC2)COC1 [Example 318]	pKi	9.25
CN1[C@@H]2CC[C@H]1CN(C(=O)Cn1cc(NC(=O)c3cnn4cccnc34)c(-c3cc(Cl)ccc3OC(F)F)n1)C2 [Example 242]	pKi	9.02
CC1(CN(CCC(F)(F)F)C2CCN(C(=O)Cn3cc(NC(=O)c4cnn5cccnc45)c(-c4cc(Cl)ccc4OC(F)F)n3)CC2)COC1 [Example 117]	pKi	9.29
CN(C)C1CCN(C(=O)c2ccc(-n3cc(NC(=O)c4cnn5cccnc45)c(-c4cc(Cl)ccc4OC(F)F)n3)cc2)CC1 [Example 302, hydrochloride]	pKi	9.22
CN(CC(C)(F)F)C1CCN(C(=O)Cn2cc(NC(=O)c3cnn4cccnc34)c(-c3cc(Cl)ccc3OC(F)F)n2)CC1 [Example 134]	pKi	9.48
C=CCN(CCOc1ccc(C)cc1)C1CCN(C(=O)Cn2cc(NC(=O)c3cnn4cccnc34)c(-c3cc(Cl)ccc3OC(F)F)n2)CC1 [Example 109]	pKi	8.49
CN1CCC2CN(C(=O)Cn3cc(NC(=O)c4cnn5cccnc45)c(-c4cc(Cl)ccc4OC(F)F)n3)CC2C1 (centres unmarked) [Example 30]	pKi	9.15
Nc1nn2cccnc2c1C(=O)Nc1cn(CC(=O)N2CC3CNCC3C2)nc1-c1cc(Cl)ccc1OC(F)F (centres unmarked) [Example 10]	pKi	9.19
O=C(Nc1cn(CC(=O)N2CCC(N3CCCC3)CC2)nc1-c1cc(Cl)ccc1OC(F)F)c1cnn2cccnc12 [Example 69]	pKi	9.07
